Origin of values: patent US20250382344A1

- Test Target: T1, human GIP receptor (human, UniProt P48546 22-466)
- T1 sequence (looked up): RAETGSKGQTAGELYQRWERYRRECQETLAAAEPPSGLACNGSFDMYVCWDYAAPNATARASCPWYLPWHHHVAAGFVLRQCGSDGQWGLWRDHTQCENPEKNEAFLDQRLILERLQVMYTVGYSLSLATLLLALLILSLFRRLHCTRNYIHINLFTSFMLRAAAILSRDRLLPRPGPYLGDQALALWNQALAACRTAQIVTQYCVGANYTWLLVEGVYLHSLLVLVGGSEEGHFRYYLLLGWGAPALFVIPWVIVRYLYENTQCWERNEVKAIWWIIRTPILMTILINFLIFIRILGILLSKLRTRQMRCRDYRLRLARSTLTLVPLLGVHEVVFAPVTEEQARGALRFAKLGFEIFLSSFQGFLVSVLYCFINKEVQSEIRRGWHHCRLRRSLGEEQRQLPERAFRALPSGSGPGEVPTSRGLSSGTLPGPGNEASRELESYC
- Experiment: cell-based or functional assay
*1 amine or outer side, *2 acyl side, *3 side chain or, on linkers, in order; H or OH if unused. Where no end group is shown, it is not given here. Side-chain parts run from the residue outwards. [ ]: non-standard residue; d: D form. The star is where a group is joined. C20 diacid = O=C(O)CCCCCCCCCCCCCCCCCCC(=O)*; C18 diacid = O=C(O)CCCCCCCCCCCCCCCCC(=O)*; γGlu = O=C(O)[C@H](CCC(=O)[*:2])N[*:1]; εLys = N[C@@H](CCCCN[*:1])C(=O)[*:2]; Aib = CC(C)(N)C(=O)O
EC50, CreLuc reporter, 100% hP vs 4 nM: less than gives YES; not less than gives NO.

>  <Binder>
YXEGTFTSDYSIXLEKQAQXAFVRHLINKXTRQXY (Aib at 2, 13, 20, 30; dOR at 34; Lys29 epsilon-amino: C18DA-gGlu-gGlu-gGlu-gGlu-gGlu-gGlu-eLys; C-terminal amide) [Compound 90]

>  <Group Label>
YES

$$$$
>  <Binder>
YXEGTFTSDYSIXLEKQAQXAFVRHLINKXTRQRY (Aib at 2, 13, 20, 30; NMeY at 35; Lys29 epsilon-amino: C18DA-gGlu-gGlu-gGlu-gGlu-gGlu-gGlu-eLys; C-terminal amide) [Compound 116]

>  <Group Label>
YES

$$$$
>  <Binder>
Y[Aib]EGTFTSDLSI[Aib]LEKQAQ[Aib]AFVRHLINK([εLys-γGlu-γGlu-γGlu-γGlu-γGlu-γGlu-γGlu-C20 diacid])[Aib]TRQRY-NH2 [Compound 135]

>  <Group Label>
NO

$$$$
>  <Binder>
YXEATFTSDYSIXLEKQAQXAFVRHLINKXTRQRY (Aib at 2, 13, 20, 30; Lys29 epsilon-amino: C18DA-gGlu-gGlu-gGlu-gGlu-gGlu-gGlu-eLys; C-terminal amide) [Compound 93]

>  <Group Label>
NO

$$$$
>  <Binder>
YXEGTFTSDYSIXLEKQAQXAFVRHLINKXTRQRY (Aib at 2, 13, 20, 30; Lys29 epsilon-amino: C20DA-gGlu-gGlu-gGlu-gGlu-gGlu-AHX-AHX; C-terminal amide) [Compound 106]

>  <Group Label>
NO

$$$$
>  <Binder>
YXEGTFTSDYSIXLEKQAQXAFVRALINKXTRQRY (Aib at 2, 13, 20, 30; Lys29 epsilon-amino: C18DA-gGlu-gGlu-gGlu-gGlu-gGlu-gGlu-eLys; C-terminal amide) [Compound 128]

>  <Group Label>
NO

$$$$
>  <Binder>
YXEGTFTSDYSIXLEKQAQXAFVRHLINKLTRQRY (Aib at 2, 13, 20; Lys29 epsilon-amino: C18DA-gGlu-gGlu-gGlu-gGlu-gGlu; C-terminal amide) [Compound 158]

>  <Group Label>
NO

$$$$
>  <Binder>
Y[Aib]EGTFTSDYSI[Aib]LEKQAQ[Aib]AFVRHLINK([εLys-γGlu-γGlu-γGlu-γGlu-γGlu-γGlu-γGlu-C18 diacid])[Aib]TRQRY-NH2 [Compound 121]

>  <Group Label>
YES

$$$$
>  <Binder>
YXEGTFTSDYSIXLEGQAQXAFVRHLINKXTRQRY (Aib at 2, 13, 20, 30; Lys29 epsilon-amino: C18DA-gGlu-gGlu-gGlu-gGlu-gGlu-gGlu-eLys; C-terminal amide) [Compound 95]

>  <Group Label>
NO

$$$$
>  <Binder>
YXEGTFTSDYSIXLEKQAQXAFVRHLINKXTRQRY (Aib at 2, 20, 30; aMeL at 13; Lys29 epsilon-amino: C18DA-gGlu-gGlu-gGlu-gGlu-gGlu-gGlu-eLys; C-terminal amide) [Compound 119]

>  <Group Label>
YES

$$$$
>  <Binder>
YXEGTFTSDYSIXLEEQAQXAFVRHLINKXTRQRY (Aib at 2, 20, 30; aMeL at 13; Lys29 epsilon-amino: C20DA-gGlu-gGlu-gGlu-gGlu-gGlu-gGlu-eLys; C-terminal amide) [Compound 89]

>  <Group Label>
YES

$$$$
